meta.source: patent US20240368263A1

Molecular target: T1, human TL1A (Fitzgerald, Prod. #30R-AT070) (human, UniProt O95150 72-251, limits assumed, biotinylated with EZ-Link Sulfo-NHS-LC-Biotin where used as soluble antigen)
T1 construct: also called TNFSF15; biotinylated human TL1A
T1 sequence (looked up): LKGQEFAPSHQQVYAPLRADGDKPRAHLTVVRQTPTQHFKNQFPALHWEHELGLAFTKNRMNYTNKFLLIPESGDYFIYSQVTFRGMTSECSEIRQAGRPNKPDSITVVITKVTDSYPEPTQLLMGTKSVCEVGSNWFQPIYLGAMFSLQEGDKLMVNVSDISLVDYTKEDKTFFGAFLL
Assay: ELISA
property: binding result

1. H3-7 (V102W) Fab (Fab, V domains shown, Fab; also called 21-3 V102W heavy chain with 18-7 light chain) VH: QVQLVQSGAEVKKPGASVKVSCKASGFDIQDTYMHWVRQAPGQGLEWMGRIDPASGHTKYDPKFQVRVTMTRDTSTSTVYMELSSLRSEDTAVYYCARSGGLPDWWGQGTTVTVSS VL: EIVLTQSPGTLSLSPGERATLSCRASSSVSYMYWYQQKPGQAPRLLIYATSNLASGIPDRFSGSGSGTDFTLTISRLEPEDFAVYYCQQWSGNPRTFGGGTKLEIK | binds
2. H3-7 (V102K) Fab (Fab, V domains shown, Fab; also called 21-3 V102K heavy chain with 18-7 light chain) VH: QVQLVQSGAEVKKPGASVKVSCKASGFDIQDTYMHWVRQAPGQGLEWMGRIDPASGHTKYDPKFQVRVTMTRDTSTSTVYMELSSLRSEDTAVYYCARSGGLPDKWGQGTTVTVSS VL: EIVLTQSPGTLSLSPGERATLSCRASSSVSYMYWYQQKPGQAPRLLIYATSNLASGIPDRFSGSGSGTDFTLTISRLEPEDFAVYYCQQWSGNPRTFGGGTKLEIK | binds
3. L3-4 (S92E) Fab (Fab, V domains shown, Fab; also called 18-7 S92E light chain with 21-3 heavy chain) VH: QVQLVQSGAEVKKPGASVKVSCKASGFDIQDTYMHWVRQAPGQGLEWMGRIDPASGHTKYDPKFQVRVTMTRDTSTSTVYMELSSLRSEDTAVYYCARSGGLPDVWGQGTTVTVSS VL: EIVLTQSPGTLSLSPGERATLSCRASSSVSYMYWYQQKPGQAPRLLIYATSNLASGIPDRFSGSGSGTDFTLTISRLEPEDFAVYYCQQWEGNPRTFGGGTKLEIK | binds
